- assayed.system: T1, CD70 ECD (Homo sapiens, UniProt P32970)
- T1 sequence (P32970 39-193 limits assumed): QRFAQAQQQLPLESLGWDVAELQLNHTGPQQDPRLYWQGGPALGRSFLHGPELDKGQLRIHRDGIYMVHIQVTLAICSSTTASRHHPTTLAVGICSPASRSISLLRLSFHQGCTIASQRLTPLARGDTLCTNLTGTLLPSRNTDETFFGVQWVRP
- assay.text: Biacore affinity measurement on immobilized CD70 ECD
- Format: binding
- run.parameters: 25° C., CD70 immobilized
readout.name: kd (s⁻¹)
Write the number in s⁻¹ without appending the unit.

- molecule: "1H8: anti-CD70 antibody clone, VH SEQ 5 and VL SEQ 6; scFv and full human IgG1/kappa (antibody, V domains shown) VH: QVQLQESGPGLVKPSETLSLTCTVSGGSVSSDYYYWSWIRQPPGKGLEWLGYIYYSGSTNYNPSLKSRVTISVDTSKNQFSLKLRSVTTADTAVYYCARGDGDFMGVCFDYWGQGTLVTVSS VL: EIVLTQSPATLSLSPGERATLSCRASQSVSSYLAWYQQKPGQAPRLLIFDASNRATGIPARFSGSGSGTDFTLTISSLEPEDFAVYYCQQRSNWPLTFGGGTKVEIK"
  kd / s⁻¹: 0.00112
- molecule: "2E7: anti-CD70 antibody clone, VH SEQ 7 and VL SEQ 8; tested as scFv and full human IgG1/kappa (antibody, V domains shown, Synthetic 2E7 VH amino acid sequence; Synthetic 2E7 VL amino acid sequence, tested as scFv and full human IgG1/kappa) VH: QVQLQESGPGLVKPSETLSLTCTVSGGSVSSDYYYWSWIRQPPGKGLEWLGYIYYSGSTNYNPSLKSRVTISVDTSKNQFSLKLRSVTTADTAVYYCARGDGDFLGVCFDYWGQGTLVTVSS VL: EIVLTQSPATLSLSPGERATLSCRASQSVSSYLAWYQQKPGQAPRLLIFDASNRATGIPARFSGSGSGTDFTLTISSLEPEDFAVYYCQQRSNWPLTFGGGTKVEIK"
  kd / s⁻¹: 0.00106
- molecule: "2A4P0L1: new VH/VL combination derived from the VH of 2A4 and the VL of 2D2 (antibody, V domains shown) VH: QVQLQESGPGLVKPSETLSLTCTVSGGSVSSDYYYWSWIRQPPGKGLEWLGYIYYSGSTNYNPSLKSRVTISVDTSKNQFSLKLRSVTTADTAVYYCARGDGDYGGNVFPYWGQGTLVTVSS VL: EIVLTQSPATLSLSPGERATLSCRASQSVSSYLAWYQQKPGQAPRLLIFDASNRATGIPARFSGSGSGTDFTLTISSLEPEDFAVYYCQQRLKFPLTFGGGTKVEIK"
  kd / s⁻¹: 0.00197
- molecule: "Vorsetuzumab (antibody, V domains shown, Synthetic h1F6 VH amino acid sequence; Synthetic h1F6 VL amino acid sequence) VH: QVQLVQSGAEVKKPGASVKVSCKASGYTFTNYGMNWVRQAPGQGLKWMGWINTYTGEPTYADAFKGRVTMTRDTSISTAYMELSRLRSDDTAVYYCARDYGDYGMDYWGQGTTVTVSS VL: DIVMTQSPDSLAVSLGERATINCRASKSVSTSGYSFMHWYQQKPGQPPKLLIYLASNLESGVPDRFSGSGSGTDFTLTISSLQAEDVAVYYCQHSREVPWTFGQGTKVEIK"
  kd / s⁻¹: 0.00236

Query molecule follows.
Ask | Returns the measured kd for the input molecule. Input: 69A7: parent anti-CD70 antibody (U.S. Pat. No. 8,124,738B2), VH/VL SEQ ID NOs: 1 and 2 (antibody, V domains shown, Synthetic 69A7 VH amino acid sequence; Synthetic 69A7 VL amino acid sequence) VH: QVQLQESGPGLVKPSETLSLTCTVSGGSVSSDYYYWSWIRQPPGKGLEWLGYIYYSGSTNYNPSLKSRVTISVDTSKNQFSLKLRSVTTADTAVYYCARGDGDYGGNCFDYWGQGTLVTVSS VL: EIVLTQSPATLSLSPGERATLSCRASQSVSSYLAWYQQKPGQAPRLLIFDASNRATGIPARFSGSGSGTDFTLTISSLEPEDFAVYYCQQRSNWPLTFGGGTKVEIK
Reply | 0.00198
